test: yeast display, Sf9 membrane polyspecificity reagent, FACS + sequencing; frameworks hold sequencing errors
measurement-label: polyreactivity (PSR sort gate)

# example entries with known answers
{"columns": ["biosequence", "polyreactivity (PSR sort gate)"],
 "data": [
  ["QVQLVETGGGLVQAGGSLLLSSAASGIIIRYYGMGCYGQAPGTERELVARIRWTGGSTYSADSVKGRFTISRDNAKNTVYLQMNSLKPEDTAVYYCAADIWQYSRIANYHPFDYWGQGTQVTVSS", "low polyreactivity"],
  ["QVQLVESGGGLVQAGGSLRLSCAASGSTFDDNVMGWYRQAPGKERELVASSTSGGGTNYADSVKGRFTISRDNAKNTVYLQMKSLKPEDTAVYYCAARTQGRRLDYGYWGQGTQVTVSS", "low polyreactivity"],
  ["QVQLVESGGGLVQAGGSLRLSCAASGITISYYAMGWYRQAPGKERELVAAISFSGARTYYADSVKGRFTISRDNAKNTVYLQMNSLKPEDTAVYYCNAVSGIVQRYDYWGQGTQVTVSS", "high polyreactivity"],
  ["QVQLVESGGGLVQAGGSLRLSCAASGRTFFFYAMGWYRQAPGKERELVAGITSRGTRTYYADSVKGRFTISRDNAKNTVYLQMNSLKPEDTAVYYCATDDCRDWLNYWGQGTQVTVSS", "low polyreactivity"]
]}

// batch mode: one polyreactivity (PSR sort gate) value per listed entry
1. QVQLVESGGGLVQAGGSLRLSCAASGFTFDYYAMGWYRPAPGKERELVAAISWRGTTTYYADSVKGRFTISRDNEKNTVYLQMNSLKPEDTAVYYCAADSLFGHYDYWGHGTQVTVSS
2. QVQLVESGGGLVQAGGSLRLSCAASGRIFGYYAMGWYRQAPGKERELVAAITINGGRTYYADSVKGRFTISRDNAKNTVYLQMNSLKPEDTAVYYCTATSRYNRLGYWGQGTQVTVSS
3. QVQLVESGGGLVHAGCRLRLSCAPSGSILYYNAMGGYRQAPGNERELVAAITSGGSTYADSVKGRFTISRDNAKNTVYLQMYSLKPEDTAVDYCAADLDWSLSVFGTTLEHDDWGQGTQVTVSS
4. QVQLVESGGGLVQAGGSLRLICAASGRTFNSNVMGRSRQAPGKERELVAAISGSSGSTRYADSVKGRFTISRDNAKNTVYLQMNSLKPEDTEVYYCAAYPLYRRRWTGDYWGQGTQVTVSS
5. QVQLVESGGGLVQAGGSLRLSCAASGSIFYSNAMGWSRQAPGKEREFVAAISAGGGSTYYADSVKGRFTISRDNATNTVYLQMISLKPEDTAVYYCAADYFYPYYGAMDYWGQGTQVTVSS
6. QVQLVESGGGLVQAGGSLRLSCAASGRTFYYYAMGWYRQAPGKERELVATITKSSGSTSYADSVKGRFTISRDNAKNTVYLQMNSLKPEDSAVYSCARRIKWGKFKGWNYPAHNYWGQGTQVTVSS

low polyreactivity
high polyreactivity
low polyreactivity
high polyreactivity
low polyreactivity
high polyreactivity

// batch mode: one polyreactivity (PSR sort gate) value per listed entry
1. QVQIVESGGGLVQAGGSLRLSCAASGSTFTRYTMGWYRQAPGKERELVAAISGRGGSTYYADSVKGRFTISRDNAKNTVYLQMNSLKPEDTAVYYCNKVYWRRGSLEYWGQGTQVTVSS
2. QVQLLESGGGLVQAGGSLRLSCAASGRIFSRYAMGWYRQAPGKERELVASISWSGDGTYYADSVKGRFTISRDNAKNTVYLQMNSLKPEDTAVYYCAAAPWDAPWSGYEYWGQGTEVTVSS

["high polyreactivity", "high polyreactivity"]
